These entries and their values trace back to patent US20230095276A1.

# Tested on: RAR gamma
# Assay Name: RAR gamma agonist reporter cell assay (Gal4 DBD receptor hybrid, luciferase)
# Assay type: cell-based
# Conditions Used: RAR gamma, 0.1 μM, 23 hours, vs DMSO
Recorded Fold Activation for the following compounds
Property Measured: Fold Activation

| Compound | Subject Of Test | Reported Measurement |
| --- | --- | --- |
| CC1=C(/C=C/C(C)=C/C=C/C(C)=C/C(=O)O)C(C)(C)CCC1 [Retinoic acid, reference compound] | RAR gamma | 706 fold |
| CC1=C(/C=C/C(C)=C/C=C/C(C)=C/C(=O)Oc2c(C)c(C)c3c(c2C)CCC(C)(CCCC(C)CCCC(C)CCCC(C)C)O3)C(C)(C)CCC1 (racemic) [(±)α-tocopheryl retinoate] | RAR gamma | 23.8 fold |
| CC1=C(/C=C/C(C)=C/C=C/C(C)=C/C(=O)Oc2ccc(O)c(C(C)(C)C)c2)C(C)(C)CCC1 [3-tert-Butyl-4-hydroxyphenyl retinoate, 3-tert-butyl-4-hydroxyphenyl retinoate] | RAR gamma | 1,010 fold |
| CC1=C(/C=C/C(C)=C/C=C/C(C)=C/CO)C(C)(C)CCC1 [Retinol, reference compound] | RAR gamma | 18.5 fold |
| CC1=C(/C=C/C(C)=C/C=C/C(C)=C/C(=O)Oc2cc(C)c3c(c2)CC[C@@](C)(CCC[C@H](C)CCC[C@H](C)CCCC(C)C)O3)C(C)(C)CCC1 [(+)δ-Tocopheroyl retinoate, (+)δ-tocopheroyl retinoate] | RAR gamma | 8.45 fold |

---

# Subject Of Test: RAR beta (Homo sapiens, UniProt P10826)
# Sequence (P10826 183-417 limits assumed): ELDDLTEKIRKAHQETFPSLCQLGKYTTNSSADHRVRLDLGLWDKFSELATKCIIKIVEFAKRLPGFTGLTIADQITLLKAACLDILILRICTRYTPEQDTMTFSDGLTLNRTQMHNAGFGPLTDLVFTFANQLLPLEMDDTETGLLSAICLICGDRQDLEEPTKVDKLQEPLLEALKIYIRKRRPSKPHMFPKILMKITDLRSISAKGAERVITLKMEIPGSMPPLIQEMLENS
# Assay Name: RAR beta agonist reporter cell assay (Gal4 DBD receptor hybrid, luciferase)
# Assay type: cell-based
# Conditions Used: RAR beta, 0.1 μM, 23 hours, vs DMSO
Below: a set of entries, each annotated with reported Fold Activation.

| Compound | Fold Activation (fold) |
| --- | --- |
| CC1=C(/C=C/C(C)=C/C=C/C(C)=C/CO)C(C)(C)CCC1 [Retinol, reference compound] | 4.91 |
| CC1=C(/C=C/C(C)=C/C=C/C(C)=C/C(=O)Oc2c(C)c(C)c3c(c2C)CCC(C)(CCCC(C)CCCC(C)CCCC(C)C)O3)C(C)(C)CCC1 (racemic) [(±)α-tocopheryl retinoate] | 6.33 |
| CC1=C(/C=C/C(C)=C/C=C/C(C)=C/C(=O)Oc2cc(C)c3c(c2)CC[C@@](C)(CCC[C@H](C)CCC[C@H](C)CCCC(C)C)O3)C(C)(C)CCC1 [(+)δ-Tocopheroyl retinoate, (+)δ-tocopheroyl retinoate] | 3.96 |
| CC1=C(/C=C/C(C)=C/C=C/C(C)=C/C(=O)Oc2ccc(O)c(C(C)(C)C)c2)C(C)(C)CCC1 [3-tert-Butyl-4-hydroxyphenyl retinoate, 3-tert-butyl-4-hydroxyphenyl retinoate] | 287 |

---

# Subject Of Test: RAR alpha (Homo sapiens)
# Sequence (P10276 183-417 limits assumed): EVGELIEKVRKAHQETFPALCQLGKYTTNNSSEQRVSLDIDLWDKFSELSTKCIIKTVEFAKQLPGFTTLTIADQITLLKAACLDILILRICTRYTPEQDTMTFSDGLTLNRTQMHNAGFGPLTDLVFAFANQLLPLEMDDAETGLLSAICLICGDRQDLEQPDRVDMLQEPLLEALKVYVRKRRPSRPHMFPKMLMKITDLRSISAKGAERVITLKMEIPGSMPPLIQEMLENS
# Assay Name: RAR alpha agonist reporter cell assay (Gal4 DBD receptor hybrid, luciferase)
# Assay type: cell-based
# Conditions Used: RAR alpha, 1 μM, 23 hours, vs DMSO
Recorded Fold Activation, one value per entry.

| Compound | Fold Activation |
| --- | --- |
| CC1=C(/C=C/C(C)=C/C=C/C(C)=C/C(=O)Oc2c(C)c(C)c3c(c2C)CCC(C)(CCCC(C)CCCC(C)CCCC(C)C)O3)C(C)(C)CCC1 (racemic) [(±)α-tocopheryl retinoate] | 552 fold |
| CC1=C(/C=C/C(C)=C/C=C/C(C)=C/C(=O)Oc2ccc(O)c(C(C)(C)C)c2)C(C)(C)CCC1 [3-tert-Butyl-4-hydroxyphenyl retinoate, 3-tert-butyl-4-hydroxyphenyl retinoate] | 3,414 fold |
| CC1=C(/C=C/C(C)=C/C=C/C(C)=C/CO)C(C)(C)CCC1 [Retinol, reference compound] | 518 fold |
| CC1=C(/C=C/C(C)=C/C=C/C(C)=C/C(=O)Oc2cc(C)c3c(c2)CC[C@@](C)(CCC[C@H](C)CCC[C@H](C)CCCC(C)C)O3)C(C)(C)CCC1 [(+)δ-Tocopheroyl retinoate, (+)δ-tocopheroyl retinoate] | 251 fold |
